protocol: Compound was tested for the concentration of agent which reduces the supernatant protein concentration (tubulin, 1 mg/mL) by 50%; ED50/ED50taxol
Format: functional
# key: entry, value: Ratio
# respond with the number and nothing more

Query `CC(=O)O[C@@H]1C2=C(C)[C@@H](OC(=O)[C@H](O)[C@@H](NC(=O)c3ccccc3)c3ccccc3)C[C@@](O)([C@@H](OC(=O)c3ccccc3)[C@@H]3[C@]4(OC(C)=O)CO[C@@H]4C[C@H](O)[C@@]3(C)[C@H]1O)C2(C)C` yields Ratio of 0.86

Query `CCCC[C@H](NC(=O)OC(C)(C)C)[C@@H](O)C(=O)O[C@H]1C[C@@]2(O)[C@@H](OC(=O)c3ccccc3)[C@@H]3[C@]4(OC(C)=O)CO[C@@H]4C[C@H](O)[C@@]3(C)[C@@H](O)[C@H](OC(C)=O)C(=C1C)C2(C)C` yields Ratio of 2.15

// next entry
Query `CC(=O)O[C@@H]1C2=C(C)[C@@H](OC(=O)[C@H](O)[C@@H](NC(=O)OC(C)(C)C)[C@H](O)CO)C[C@@](O)([C@@H](OC(=O)c3ccccc3)[C@@H]3[C@]4(OC(C)=O)CO[C@@H]4C[C@H](O)[C@@]3(C)[C@H]1O)C2(C)C` yields Ratio of 2.71

====

Test system: P388
protocol: In vitro cytotoxicity against P388 (murine leukemia) cell line.
Assay type: functional, cell-based
experimental-conditions: Mus musculus
measurement-type: IC50 (µg/mL)
Write the number in µg/mL without appending the unit.

Consider the worked cases shown below.
Query `CC(=O)O[C@@H]1C2=C(C)[C@@H](OC(=O)[C@H](O)[C@@H](NC(=O)OC(C)(C)C)c3cscn3)C[C@@](O)([C@@H](OC(=O)c3ccccc3)[C@@H]3[C@]4(OC(C)=O)CO[C@@H]4C[C@H](O)[C@@]3(C)[C@H]1O)C2(C)C` yields IC50 of 0.0014

Query `CCCCC[C@H](NC(=O)OC(C)(C)C)[C@@H](O)C(=O)O[C@H]1C[C@@]2(O)[C@@H](OC(=O)c3ccccc3)[C@@H]3[C@]4(OC(C)=O)CO[C@@H]4C[C@H](O)[C@@]3(C)[C@@H](O)[C@H](OC(C)=O)C(=C1C)C2(C)C` yields IC50 of 0.016

// next entry
Query `CC(=O)O[C@@H]1C2=C(C)[C@@H](OC(=O)[C@H](O)[C@@H](NC(=O)OC(C)(C)C)C3CCCCC3)C[C@@](O)([C@@H](OC(=O)c3ccccc3)[C@@H]3[C@]4(OC(C)=O)CO[C@@H]4C[C@H](O)[C@@]3(C)[C@H]1O)C2(C)C` yields IC50 of 0.014

====

# key: entry, value: Ratio
protocol: Compound was tested for the concentration of agent which reduces the supernatant protein concentration (tubulin, 1 mg/mL) by 50%; ED50/ED50taxol
Type: functional
# respond with the number and nothing more

Query `CC(=O)O[C@@H]1C2=C(C)[C@@H](OC(=O)[C@H](O)[C@H](COc3ccccc3)NC(=O)c3ccccc3)C[C@@](O)([C@@H](OC(=O)c3ccccc3)[C@@H]3[C@]4(OC(C)=O)CO[C@@H]4C[C@H](O)[C@@]3(C)[C@H]1O)C2(C)C` yields Ratio of 5.81

Query `CC(=O)O[C@@H]1C2=C(C)[C@@H](OC(=O)[C@H](O)[C@@H](NC(=O)OC(C)(C)C)c3cscn3)C[C@@](O)([C@@H](OC(=O)c3ccccc3)[C@@H]3[C@]4(OC(C)=O)CO[C@@H]4C[C@H](O)[C@@]3(C)[C@H]1O)C2(C)C` yields Ratio of 1.36
